Items are presented alongside their recorded remaining at 1 h, 1 µM.
test: Metabolic stability in rat hepatocytes assessed as parent compound remaining at 1 uM after 60 mins by LC-MS/MS analysis; format: ADME, cell-based, Hepatocyte; conditions: read-out: Stability
Your answer is read as %, so omit the unit and give the number.

Guide cases for remaining at 1 h, 1 µM, answers given:
entry.smiles	unit.of.measure	remaining at 1 h, 1 µM
C[C@H](c1ccc(Cl)cc1Cl)n1nc(C#N)c2ncc(N3CC([C@H]4CCCN(CCO)C4)C3)nc21	%	73
Cc1nn([C@H](C)c2ccc(Cl)cc2Cl)c2nc(N3CC([C@H]4CCCN(CCNS(C)(=O)=O)C4)C3)cnc12	%	53
C[C@H](c1ccc(Cl)cc1Cl)n1nc(C(N)=O)c2ncc(N3CC([C@H]4CCCN(CCO)C4)C3)nc21	%	95
Cc1nn([C@H](C)c2ccc(Cl)cc2Cl)c2nc(N3CC([C@H]4CCCN(CCO)C4)C3)cnc12	%	62

Documented remaining at 1 h, 1 µM of CC(=O)NCCN1CCC[C@H](C2CN(c3cnc4c(C)nn([C@H](C)c5ccc(Cl)cc5Cl)c4n3)C2)C1 : 68

----------
Molecular target: C-C chemokine receptor type 4 (Homo sapiens, UniProt P51679)
Sequence (P51679 whole entry): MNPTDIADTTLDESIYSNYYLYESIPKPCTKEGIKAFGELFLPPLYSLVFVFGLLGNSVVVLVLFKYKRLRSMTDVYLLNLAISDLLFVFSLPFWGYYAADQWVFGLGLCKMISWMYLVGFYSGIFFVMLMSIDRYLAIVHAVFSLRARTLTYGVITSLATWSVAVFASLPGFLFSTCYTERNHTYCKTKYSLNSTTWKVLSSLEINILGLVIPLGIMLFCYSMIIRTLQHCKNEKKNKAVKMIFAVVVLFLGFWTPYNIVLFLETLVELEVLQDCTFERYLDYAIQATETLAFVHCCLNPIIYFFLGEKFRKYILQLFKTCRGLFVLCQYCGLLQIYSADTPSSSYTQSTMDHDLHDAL
Assay: Antagonist activity at human CCR4 expressed in rat chem-5 cells assessed as inhibition of CCL22-induced calcium flux measured at 2.5 secs time interval for 45 secs by calcium 6 dye-based FLIPR assay
Measured IC50 of individual entries

The value of IC50 measured for the compound C[C@H](c1ccc(Cl)cc1Cl)n1nc(C#N)c2ncc(N3CC([C@H]4CCCN(CC(=O)O)C4)C3)nc21 turned out to be 0.036 µM

Consider Cc1nn([C@H](C)c2ccc(Cl)cc2Cl)c2nc(N3CC([C@H]4CCCN(CCCO)C4)C3)cnc12 . Its measured IC50 is 0.037 µM

----------
assay: Terminal half life in cynomolgus monkey at 0.5 mg/kg, iv; assay type: ADME, organism-based, Macaca fascicularis; details: in vivo, read-out: beta t1/2 (converted)
readout.type: half-life (h)
// note: answer is a bare numeric in h

The value of half-life measured for the compound C[C@H](c1ccc(Cl)cc1Cl)n1nc(C#N)c2ncc(N3CC([C@H]4CCCN(CCO)C4)C3)nc21 turned out to be 10.7

----------
assay: Clearance in dog at 0.5 mg/kg, iv; format: ADME, organism-based, Canis lupus familiaris; conditions: in vivo
readout.type: clearance

Input C[C@H](c1ccc(Cl)cc1Cl)n1nc(C#N)c2ncc(N3CC([C@H]4CCCN(CCO)C4)C3)nc21 . Output clearance: 0.438 L/h/kg
